B1: POU domain, class 4, transcription factor 2, residues 256 to 327; numbered along this chain, Q12837 (parent)
chain: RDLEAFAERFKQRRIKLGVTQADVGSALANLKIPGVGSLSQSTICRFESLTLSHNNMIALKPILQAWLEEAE

Variants of: B1
test name: abundance fitness (aPCA) (normalised: wild type 0, dead -1); higher = more abundant; growth selection in yeast, the domain comes from the species named
test parameters: Homo sapiens
Parameter class (string): assigned from measured abundance fitness. Ranges: A (below -0.4), B (-0.4 to below -0.1), C (-0.1 or more)

INPUT: Category of R13V :
OUTPUT: C

INPUT: Pick a category. Item: G35E
OUTPUT: A

INPUT: Into which category would you place A27W ?
OUTPUT: B

INPUT: Which class is correct for the following variant? V24M
OUTPUT: B

INPUT: Exam item: assign P62M to the correct category.
OUTPUT: A

INPUT: Class? Entry: G37V
OUTPUT: B

INPUT: Category of I33Q :
OUTPUT: A

INPUT: Could you tell me which band L60M belongs to?
OUTPUT: C

INPUT: Band for the recorded abundance fitness of L64N ?
OUTPUT: A

INPUT: # classify by abundance fitness band: I33Y
OUTPUT: B

INPUT: // bin(item) where item = L68A
OUTPUT: A

INPUT: Kindly identify the class of L64A .
OUTPUT: A

INPUT: Which category fits this record: S40T
OUTPUT: C

INPUT: Could you place F47V in its proper category? Many thanks.
OUTPUT: A

INPUT: Just checking, what class would you give Q65C here?
OUTPUT: B

INPUT: For E70I , which abundance fitness bin applies?
OUTPUT: B

INPUT: Band of N56F ?
OUTPUT: B

INPUT: Hey, which category is Q21K in, do you know?
OUTPUT: B

INPUT: # bin lookup: classify S42L by its abundance fitness
OUTPUT: B

INPUT: Please report the category associated with I44R , nothing else.
OUTPUT: A

INPUT: Sort T43W into one of the categories.
OUTPUT: B

INPUT: Which bin, given its abundance fitness, does L50F occupy?
OUTPUT: C

INPUT: Category of L28W :
OUTPUT: A

INPUT: GET /class?item= A29M
OUTPUT: C

INPUT: Lab log: P34H — assign abundance fitness category
OUTPUT: C

INPUT: Hey, which category is R13S in, do you know?
OUTPUT: C

INPUT: Which bin, given its abundance fitness, does T43R occupy?
OUTPUT: A

INPUT: Which class is correct for the following variant? P34C
OUTPUT: A

INPUT: Determine which band this variant sits in: I58R
OUTPUT: C

INPUT: Place this variant in its band: G37R
OUTPUT: B

INPUT: Each variant maps to one class by abundance fitness. Which class for L60Y ?
OUTPUT: C

INPUT: Which bin should I file F47W under?
OUTPUT: A

INPUT: Which abundance fitness category applies to L60E here?
OUTPUT: A

INPUT: Class? Entry: Q65R
OUTPUT: B

INPUT: Please report the category associated with F47C , nothing else.
OUTPUT: B

INPUT: Any idea which band T51H is in?
OUTPUT: B

INPUT: Looking at L64Y , which class would you pick?
OUTPUT: A

INPUT: Hello team, could you let me know which band the following variant falls into: E72A
OUTPUT: A

INPUT: Which bin should I file G25D under?
OUTPUT: A

INPUT: // return the class label for D23R
OUTPUT: B

INPUT: Bin? H54E
OUTPUT: B

INPUT: Please indicate the class for A66G based on its abundance fitness.
OUTPUT: C

INPUT: Category of I58A , please.
OUTPUT: B
